The reported measurements were obtained from patent US20110118131A1.

Target: T1, Ep-CAM (UniProt P16422 24-265, limits assumed)
T1 construct: Immobilised on the Biacore chip; construct not described
T1 sequence (looked up): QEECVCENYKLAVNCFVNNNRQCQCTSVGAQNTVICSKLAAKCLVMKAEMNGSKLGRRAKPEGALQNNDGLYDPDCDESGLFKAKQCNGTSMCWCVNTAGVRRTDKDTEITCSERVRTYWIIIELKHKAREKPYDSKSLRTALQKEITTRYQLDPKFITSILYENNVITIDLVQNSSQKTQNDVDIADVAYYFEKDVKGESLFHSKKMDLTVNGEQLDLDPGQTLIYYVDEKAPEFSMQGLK
Assay: Biacore, Fab periplasmic extract
REPORTED PROPERTY: fold difference in affinity vs original ING-1 (fold)
Write down the numeric answer in fold and omit the unit.

Ask | Would you mind telling me what fold difference in affinity vs original ING-1 value was observed for ING-1 Fab, light chain Q55G (Fab, V domains shown, Fab in periplasmic extract) VH: QIQLVQSGPELKKPGETVKISCKASGYTFTKYGMNWVKQAPGKGLKWMGWINTYTEEPTYGDDFKGRFAFSLETSASTANLQINNLKSEDTATYFCARFGSAVDYWGQGTSVTVSS VL: DIVMTQAAFSNPVTLGTSGSISCRSSKSLLHSNGITYLYWYLQKPGQSPQLLIYGMSNLASGVPDRFSSSGSGTDFTLRISRVEAEDVGVYYCAQNLELPRTFGGGTKLEMKR ?
Reply | 0.7
